# systemUnderTest: recombinant human transglutaminase 2 (Homo sapiens)
# Sequence (P21980 whole entry): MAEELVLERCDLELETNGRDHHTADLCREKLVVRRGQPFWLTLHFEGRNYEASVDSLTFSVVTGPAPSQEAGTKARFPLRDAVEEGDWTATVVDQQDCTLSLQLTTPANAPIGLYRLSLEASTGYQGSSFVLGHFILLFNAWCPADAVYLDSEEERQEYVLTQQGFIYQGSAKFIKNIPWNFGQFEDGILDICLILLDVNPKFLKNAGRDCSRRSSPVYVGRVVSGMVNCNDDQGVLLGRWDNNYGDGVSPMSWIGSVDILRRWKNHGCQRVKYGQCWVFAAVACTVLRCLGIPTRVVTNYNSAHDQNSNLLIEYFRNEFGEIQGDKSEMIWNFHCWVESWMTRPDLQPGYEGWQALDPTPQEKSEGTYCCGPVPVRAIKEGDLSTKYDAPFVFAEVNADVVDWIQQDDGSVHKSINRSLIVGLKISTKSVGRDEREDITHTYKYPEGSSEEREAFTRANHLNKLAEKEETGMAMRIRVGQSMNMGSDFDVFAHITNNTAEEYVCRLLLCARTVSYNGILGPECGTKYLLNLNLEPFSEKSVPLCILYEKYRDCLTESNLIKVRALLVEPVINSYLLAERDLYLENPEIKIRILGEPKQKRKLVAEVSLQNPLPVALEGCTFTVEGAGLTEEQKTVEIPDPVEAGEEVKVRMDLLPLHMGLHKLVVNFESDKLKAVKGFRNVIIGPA
# assayInfo: Transglutaminase assay (dansylcadaverine incorporation into dimethylcasein, DCC-assay)
# experimentalConditions: recombinant human TG2 10 nM, dansylcadaverine/dimethylcasein, 37° C.
pIC50: −log10 of the molar value.
quantityName: pIC50

compound	systemUnderTest	pIC50
COC(=O)/C=C/CC[C@H](NC(=O)c1oc2ccccc2c1C)C(=O)Nc1cccn(CC(=O)N[C@]23C[C@H]4C5CC6CC4[C@@H](C2)[C@@H](C6)[C@@H]5C3)c1=O (stereo in doubt)	recombinant human transglutaminase 2 (Homo sapiens)	> 7.60
COC(=O)/C=C/CC[C@H](NC(=O)c1cc(Cl)c(Cl)s1)C(=O)Nc1cccn(CC(=O)NC2C3CC4CC(C3)CC2C4)c1=O (stereo partly shown)	recombinant human transglutaminase 2 (Homo sapiens)	> 7.60
COC(=O)/C=C/CC[C@H](NC(=O)c1cc(Cl)sc1Cl)C(=O)Nc1cccn(CC(=O)N[C@@H]2C[C@H]3CC[C@@H]2C3)c1=O	recombinant human transglutaminase 2 (Homo sapiens)	> 7.60
CC(C)OC(=O)/C=C/CC[C@H](NC(=O)c1cn[nH]n1)C(=O)Nc1cccn(CC(=O)NC23CCC(C2)C3)c1=O	recombinant human transglutaminase 2 (Homo sapiens)	5.82 to 6.60
COC(=O)/C=C/CC[C@H](NC(=O)c1oc2ccccc2c1C)C(=O)Nc1cccn(CC23CC4CC(CC(C4)C2)C3)c1=O	recombinant human transglutaminase 2 (Homo sapiens)	5.82 to 6.60
COC(=O)/C=C/CC[C@H](NC(=O)c1cc2c(Br)cccc2o1)C(=O)Nc1cccn(CC(=O)NC2C3CC4CC(C3)CC2C4)c1=O (stereo partly shown)	recombinant human transglutaminase 2 (Homo sapiens)	> 7.60

Record COC(=O)/C=C/CC[C@H](NC(=O)c1oc2ccccc2c1C)C(=O)Nc1cccn(CC(=O)NC23CCCC4CC(CCC42)C3)c1=O (stereo partly shown) . Reported pIC50: 6.60 to 7.60
